Molecular target: human mGlu7 (Homo sapiens, UniProt Q14831)
Construct: expressed in transfected cells
Sequence (Q14831 35-922 isoform Q14831-2 limits assumed): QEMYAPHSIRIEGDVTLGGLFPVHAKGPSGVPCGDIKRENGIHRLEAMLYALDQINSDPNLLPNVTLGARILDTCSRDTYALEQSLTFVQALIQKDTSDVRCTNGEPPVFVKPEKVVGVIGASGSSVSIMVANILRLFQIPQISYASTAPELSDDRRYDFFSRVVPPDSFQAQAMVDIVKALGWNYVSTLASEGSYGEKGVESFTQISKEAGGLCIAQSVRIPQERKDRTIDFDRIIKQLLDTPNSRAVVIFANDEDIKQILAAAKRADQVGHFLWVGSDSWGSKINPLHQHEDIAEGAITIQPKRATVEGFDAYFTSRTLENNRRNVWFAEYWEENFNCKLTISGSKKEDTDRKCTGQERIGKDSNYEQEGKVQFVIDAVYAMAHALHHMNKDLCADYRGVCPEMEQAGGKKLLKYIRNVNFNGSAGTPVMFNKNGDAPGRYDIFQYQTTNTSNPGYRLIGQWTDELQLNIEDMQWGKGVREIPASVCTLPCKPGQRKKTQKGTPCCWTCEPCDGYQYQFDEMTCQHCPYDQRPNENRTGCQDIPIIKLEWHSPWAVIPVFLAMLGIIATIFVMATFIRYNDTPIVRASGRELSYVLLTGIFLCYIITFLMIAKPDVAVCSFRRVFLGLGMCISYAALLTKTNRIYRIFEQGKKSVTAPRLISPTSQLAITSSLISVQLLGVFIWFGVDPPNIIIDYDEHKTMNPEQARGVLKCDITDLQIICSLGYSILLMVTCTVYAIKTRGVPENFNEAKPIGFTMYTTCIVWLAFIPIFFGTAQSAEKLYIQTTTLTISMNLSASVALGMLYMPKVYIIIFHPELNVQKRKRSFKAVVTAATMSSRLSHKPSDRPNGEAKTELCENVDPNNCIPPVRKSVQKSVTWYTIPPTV
Test: mGlu7 assay on HEK-expressing human mGlu7: fluorescent cell-based Ca2+ mobilization (FLIPR384), inhibition of EC80 L-AP4 response
Conditions: HEK-293 cells expressing hmGlu7, EC80 L-AP4 stimulation; mean of at least three independent experiments in duplicate; read-out: Ca^2+ Flux (mean IC50)
Procedure: mGlu7 Assay on HEK-Expressing Human mGlu7 […] After 10 s of basal fluorescence recording, various concentrations of the compounds of the invention were added to the cells. Changes in fluorescence levels were first monitored for 180 s in order to detect any agonist activity of the compounds. […]
reported.endpoint: IC50

COc1cnc(-n2ncc3cc(-c4cccc(OC)c4C)ccc3c2=O)nc1 [1-55] ... < 0.1 µM
COc1cccc(-c2ccc3c(=O)n(-c4ccc(NC(=O)[C@@H]5CCCN5)cn4)ncc3c2)c1C [1-99] ... 0.1 to 1 µM
COc1cccc(-c2ccc3c(=O)n(-c4ncc(N5CCCC5)cn4)ncc3c2)c1C [1-70] ... 0.1 to 1 µM
COc1ccc(-c2ccc3c(=O)n(-c4ccccn4)ncc3c2)cc1 [1-17] ... 0.1 to 1 µM
COc1cccc(-c2ccc3c(=O)n(-c4cc(C)ccn4)ncc3c2)c1 [1-30] ... 0.1 to 1 µM
CCn1ncc2cc(-c3c(C)cc(C)cc3C)ccc2c1=O [1-2] ... 0.1 to 1 µM
